target: DNA gyrase (Staphylococcus aureus, UniProt P0A0K8+P20831); test: Inhibition of Staphylococcus aureus DNA gyrase by supercoiling plate assay
Sequence (P0A0K8 whole entry): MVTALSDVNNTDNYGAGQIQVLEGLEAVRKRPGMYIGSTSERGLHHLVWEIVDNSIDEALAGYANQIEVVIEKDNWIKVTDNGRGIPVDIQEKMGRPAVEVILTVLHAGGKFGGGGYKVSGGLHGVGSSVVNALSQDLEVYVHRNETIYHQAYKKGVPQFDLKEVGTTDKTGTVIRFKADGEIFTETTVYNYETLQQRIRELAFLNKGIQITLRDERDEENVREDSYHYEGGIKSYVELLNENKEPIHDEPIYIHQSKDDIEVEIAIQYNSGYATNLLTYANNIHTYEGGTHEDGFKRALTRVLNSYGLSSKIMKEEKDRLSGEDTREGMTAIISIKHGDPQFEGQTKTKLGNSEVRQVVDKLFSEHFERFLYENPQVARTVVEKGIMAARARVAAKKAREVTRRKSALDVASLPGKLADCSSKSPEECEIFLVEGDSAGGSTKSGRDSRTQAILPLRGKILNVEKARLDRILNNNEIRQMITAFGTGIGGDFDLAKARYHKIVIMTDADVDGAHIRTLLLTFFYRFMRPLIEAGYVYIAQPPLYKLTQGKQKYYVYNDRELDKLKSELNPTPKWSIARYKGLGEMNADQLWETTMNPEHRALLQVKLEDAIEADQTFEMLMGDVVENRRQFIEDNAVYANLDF
Sequence (P20831 whole entry): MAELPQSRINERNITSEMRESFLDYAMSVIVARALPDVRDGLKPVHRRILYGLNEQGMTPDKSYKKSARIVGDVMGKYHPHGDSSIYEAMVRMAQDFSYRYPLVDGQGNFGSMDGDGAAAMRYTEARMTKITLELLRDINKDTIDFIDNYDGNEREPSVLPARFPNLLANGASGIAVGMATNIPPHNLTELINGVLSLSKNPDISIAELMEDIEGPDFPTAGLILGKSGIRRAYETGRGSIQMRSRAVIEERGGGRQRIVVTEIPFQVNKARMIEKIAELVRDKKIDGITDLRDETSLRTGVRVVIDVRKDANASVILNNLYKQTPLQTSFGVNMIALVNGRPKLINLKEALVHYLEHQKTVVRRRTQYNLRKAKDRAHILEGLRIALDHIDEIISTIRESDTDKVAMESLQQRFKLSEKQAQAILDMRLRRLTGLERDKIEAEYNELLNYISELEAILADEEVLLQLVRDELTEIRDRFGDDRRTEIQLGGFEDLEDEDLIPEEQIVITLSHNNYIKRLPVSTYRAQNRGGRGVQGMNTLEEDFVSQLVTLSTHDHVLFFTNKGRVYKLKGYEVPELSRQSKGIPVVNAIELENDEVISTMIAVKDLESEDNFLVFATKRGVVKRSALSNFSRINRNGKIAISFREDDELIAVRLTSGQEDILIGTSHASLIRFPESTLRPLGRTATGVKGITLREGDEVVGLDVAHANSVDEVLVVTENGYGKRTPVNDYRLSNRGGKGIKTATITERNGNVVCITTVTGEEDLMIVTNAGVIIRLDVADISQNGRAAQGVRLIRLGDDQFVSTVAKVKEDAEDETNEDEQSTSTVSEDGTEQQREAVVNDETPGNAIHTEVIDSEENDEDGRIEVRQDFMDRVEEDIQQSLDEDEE
quantity measured: pIC50
Numbers only, as −log10 of the molar value.

Some entries whose results are on file:
molecule: Cc1[nH]c(C(=O)Nc2ccc(-c3noc(=O)[nH]3)cc2N2CCCC(CN)C2)c(Cl)c1Cl.Cl (stereo unspecified)
study target: DNA gyrase (Staphylococcus aureus, UniProt P0A0K8+P20831)
observed value: 7.62

molecule: Cc1[nH]c(C(=O)Nc2ccc(-c3nnn[nH]3)cc2N2CCCC(CN)C2)c(Cl)c1Cl.Cl (stereo unspecified)
study target: DNA gyrase (Staphylococcus aureus, UniProt P0A0K8+P20831)
observed value: 7.46

molecule: Cc1[nH]c(C(=O)Nc2ccc(-n3nn[nH]c3=O)cc2N2CCC(N)CC2)c(Cl)c1Cl.Cl
study target: DNA gyrase (Staphylococcus aureus, UniProt P0A0K8+P20831)
observed value: 6.67

molecule: Cc1[nH]c(C(=O)Nc2ccc(-c3noc(=O)[nH]3)cc2NC2CCNCC2)c(Cl)c1Cl.Cl
study target: DNA gyrase (Staphylococcus aureus, UniProt P0A0K8+P20831)
observed value: 6.60

molecule: Cc1[nH]c(C(=O)Nc2ccc(-n3nn[nH]c3=O)cc2N2CC[C@H](N)C2)c(Cl)c1Cl.Cl
study target: DNA gyrase (Staphylococcus aureus, UniProt P0A0K8+P20831)
observed value: 6.92

Would you kindly look at the next entry?
Query (molecule): Cc1[nH]c(C(=O)Nc2ccc(-c3noc(=O)[nH]3)cc2N2CCCC(N)C2)c(Cl)c1Cl.Cl (stereo unspecified) ; field requested: pIC50
7.25

* * *

test: Metabolic stability in mouse liver microsomes assessed as intrinsic clearance at 1 uM preincubated for 10 mins followed by NADPH addition and measured after 5 to 60 mins by LC-MS/MS analysis; type: ADME, Microsome; conditions: time 15-70 min, read-out: CLH
Hi there, I'd appreciate the recorded microsomal CLint at 1 µM for every entry that follows.
Answers are plain numbers, in µL/min/mg.

Worked examples follow.
smiles record: Cc1[nH]c(C(=O)Nc2ccc(-c3noc(=O)[nH]3)cc2N2CCCC2)c(Cl)c1Cl
microsomal CLint at 1 µM [µL/min/mg]: 11
//
smiles record: C[C@]12CC[C@H]3[C@@H](CCC4=CC(=O)CC[C@@]43C)[C@@H]1CC[C@@H]2O
microsomal CLint at 1 µM [µL/min/mg]: 169

Okay, next one:
What value of measured microsomal CLint at 1 µM is listed for O=C(O)Cc1ccccc1Nc1c(Cl)cccc1Cl ?
28.4

* * *

Answer each item with its documented IC50.
molecular target: DNA topoisomerase 2-alpha (Homo sapiens, UniProt P11388); assay: Inhibition of human DNA topoisomerase 2-alpha using linear pBR322 as substrate assessed as conversion of NADH to NAD+ preincubated for 10 to 15 mins in presence of pyruvate kinase/lactate dehydrogenase mix followed by ATP addition and measured after 30 mins by ATPase assay
Sequence (P11388 whole entry): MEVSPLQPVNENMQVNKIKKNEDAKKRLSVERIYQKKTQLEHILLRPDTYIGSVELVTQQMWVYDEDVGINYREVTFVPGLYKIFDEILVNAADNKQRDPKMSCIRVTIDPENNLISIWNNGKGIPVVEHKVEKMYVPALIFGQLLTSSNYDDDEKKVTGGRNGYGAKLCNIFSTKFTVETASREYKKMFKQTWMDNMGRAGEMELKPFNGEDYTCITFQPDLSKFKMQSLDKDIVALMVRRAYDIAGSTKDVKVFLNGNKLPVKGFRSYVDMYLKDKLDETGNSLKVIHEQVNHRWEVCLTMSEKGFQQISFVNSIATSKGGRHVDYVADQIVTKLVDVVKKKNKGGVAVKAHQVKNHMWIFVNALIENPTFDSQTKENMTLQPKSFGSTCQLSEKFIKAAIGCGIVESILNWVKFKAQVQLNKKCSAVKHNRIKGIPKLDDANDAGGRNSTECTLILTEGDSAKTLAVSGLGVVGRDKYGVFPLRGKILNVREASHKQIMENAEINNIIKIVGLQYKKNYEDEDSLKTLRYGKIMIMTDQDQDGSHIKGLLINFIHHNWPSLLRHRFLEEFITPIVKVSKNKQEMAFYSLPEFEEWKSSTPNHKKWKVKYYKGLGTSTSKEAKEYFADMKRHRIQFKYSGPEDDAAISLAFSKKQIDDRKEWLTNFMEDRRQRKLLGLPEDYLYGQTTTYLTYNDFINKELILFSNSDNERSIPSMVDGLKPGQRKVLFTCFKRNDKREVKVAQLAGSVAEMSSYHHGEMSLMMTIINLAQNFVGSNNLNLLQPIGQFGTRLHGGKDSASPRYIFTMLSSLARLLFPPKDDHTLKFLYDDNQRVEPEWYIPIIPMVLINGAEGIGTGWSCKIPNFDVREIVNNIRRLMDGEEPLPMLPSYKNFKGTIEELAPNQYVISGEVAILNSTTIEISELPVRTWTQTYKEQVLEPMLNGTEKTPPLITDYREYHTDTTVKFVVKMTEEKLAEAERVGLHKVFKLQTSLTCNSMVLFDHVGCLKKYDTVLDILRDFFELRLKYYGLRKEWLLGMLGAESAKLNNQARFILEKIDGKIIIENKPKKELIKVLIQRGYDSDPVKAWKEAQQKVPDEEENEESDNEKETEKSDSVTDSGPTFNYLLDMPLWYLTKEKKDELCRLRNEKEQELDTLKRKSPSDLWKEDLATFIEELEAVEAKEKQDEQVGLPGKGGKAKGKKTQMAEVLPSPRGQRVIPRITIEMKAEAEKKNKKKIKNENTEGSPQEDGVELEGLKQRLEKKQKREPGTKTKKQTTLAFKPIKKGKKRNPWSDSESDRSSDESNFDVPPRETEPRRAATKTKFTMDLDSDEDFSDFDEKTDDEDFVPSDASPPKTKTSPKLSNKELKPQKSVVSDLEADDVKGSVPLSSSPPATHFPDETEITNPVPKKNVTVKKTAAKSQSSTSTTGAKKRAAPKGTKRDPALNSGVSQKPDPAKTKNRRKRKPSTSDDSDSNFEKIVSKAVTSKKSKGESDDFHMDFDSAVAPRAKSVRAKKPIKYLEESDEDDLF
Answers are plain numbers, in µM.

smiles record: Cc1[nH]c(C(=O)Nc2ccc(-c3nnn[nH]3)cc2N2CCOCC2)c(Cl)c1Cl
study target: DNA topoisomerase 2-alpha (Homo sapiens, UniProt P11388)
result unit: µM
IC50: 39.2

Answer for every listed entry: what is its IC50? The entries follow.
1. Cc1[nH]c(C(=O)Nc2ccc(-n3nn[nH]c3=O)cc2N2CCN(c3ccccc3)CC2)c(Cl)c1Cl
2. Cc1[nH]c(C(=O)Nc2ccc(-c3noc(=O)[nH]3)cc2N2CCC(N)CC2)c(Cl)c1Cl.Cl

33.6
26.2
